Tested on: COX-2 stable 293 cells
Assay: Apoptosis in stably transfected 293 cells with inducible COX-2 over-expression
Type: cell-based, human
Details: COX-2 over-expression induced, n=3
Items are presented alongside their recorded reduction of fatty acid-induced apoptosis by inducing COX-2 over-expression.
Write the answer as a number in %, unit excluded.

compound structure	system	observed measurement
CCCCC/C=C\C/C=C\C/C=C\C/C=C\CCCC(=O)O	COX-2 stable 293 cells	36.7

Task: With COX-2 stable 293 cells as the test system, provide measured reduction of fatty acid-induced apoptosis by inducing COX-2 over-expression for this molecule: `CCCCCCCCCCCCCCCC(=O)O`
Result: 8.1

Task: For COX-2 stable 293 cells, give reduction of fatty acid-induced apoptosis by inducing COX-2 over-expression of the listed molecule: `CC/C=C\C/C=C\C/C=C\C/C=C\C/C=C\C/C=C\CCC(=O)O`
Result: 18.5

Task: Identify measured reduction of fatty acid-induced apoptosis by inducing COX-2 over-expression obtained with COX-2 stable 293 cells for `CC/C=C\C/C=C\C/C=C\C/C=C\C/C=C\CCCC(=O)O` .
Result: 34.0
